# subject of test: Nuclear factor erythroid 2-related factor 2 (Mus musculus)
# Sequence (Q60795 whole entry): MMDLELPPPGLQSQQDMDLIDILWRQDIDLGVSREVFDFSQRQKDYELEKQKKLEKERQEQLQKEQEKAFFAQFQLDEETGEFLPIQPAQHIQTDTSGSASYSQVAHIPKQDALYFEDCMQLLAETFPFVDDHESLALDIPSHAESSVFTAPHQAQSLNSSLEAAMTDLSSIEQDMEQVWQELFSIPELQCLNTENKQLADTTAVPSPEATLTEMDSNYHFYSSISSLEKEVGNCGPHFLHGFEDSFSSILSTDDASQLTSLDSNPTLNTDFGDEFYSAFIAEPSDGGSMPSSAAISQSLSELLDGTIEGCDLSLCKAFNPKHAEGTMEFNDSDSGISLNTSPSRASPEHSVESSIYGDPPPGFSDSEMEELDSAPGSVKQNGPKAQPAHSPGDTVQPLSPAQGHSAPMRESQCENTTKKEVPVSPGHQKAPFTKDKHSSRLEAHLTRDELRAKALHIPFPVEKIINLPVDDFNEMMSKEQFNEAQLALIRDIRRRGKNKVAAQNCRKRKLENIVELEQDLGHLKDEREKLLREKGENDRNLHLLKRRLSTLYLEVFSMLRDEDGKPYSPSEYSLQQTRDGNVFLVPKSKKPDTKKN
# run description: Inhibition of Nrf2 in mouse MYC-3T3-ARELUC cells harboring a stably integrated ARE by firefly luciferase reporter gene assay
metric: pEC50
Keep it numeric: pEC50 is minus log10 of the concentration in mol/L.

Prompt line: Give reported pEC50 value for `Fc1ccc(-c2csc3ncnc(NCc4ccc5c(c4)OCO5)c23)cc1`
Response line: 6.19
